# TGT: von Hippel-Lindau disease tumor suppressor/Nuclear receptor coactivator 3 (Homo sapiens) (UniProt Q9Y6Q9+P40337)
# Sequence (P40337 whole entry, looked up): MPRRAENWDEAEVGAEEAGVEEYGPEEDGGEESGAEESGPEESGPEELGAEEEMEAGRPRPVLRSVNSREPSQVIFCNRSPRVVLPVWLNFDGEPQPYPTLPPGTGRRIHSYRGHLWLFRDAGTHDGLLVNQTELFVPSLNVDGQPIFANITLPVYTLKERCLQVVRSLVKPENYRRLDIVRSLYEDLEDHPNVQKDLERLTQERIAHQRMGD
# Sequence (Q9Y6Q9 whole entry, looked up): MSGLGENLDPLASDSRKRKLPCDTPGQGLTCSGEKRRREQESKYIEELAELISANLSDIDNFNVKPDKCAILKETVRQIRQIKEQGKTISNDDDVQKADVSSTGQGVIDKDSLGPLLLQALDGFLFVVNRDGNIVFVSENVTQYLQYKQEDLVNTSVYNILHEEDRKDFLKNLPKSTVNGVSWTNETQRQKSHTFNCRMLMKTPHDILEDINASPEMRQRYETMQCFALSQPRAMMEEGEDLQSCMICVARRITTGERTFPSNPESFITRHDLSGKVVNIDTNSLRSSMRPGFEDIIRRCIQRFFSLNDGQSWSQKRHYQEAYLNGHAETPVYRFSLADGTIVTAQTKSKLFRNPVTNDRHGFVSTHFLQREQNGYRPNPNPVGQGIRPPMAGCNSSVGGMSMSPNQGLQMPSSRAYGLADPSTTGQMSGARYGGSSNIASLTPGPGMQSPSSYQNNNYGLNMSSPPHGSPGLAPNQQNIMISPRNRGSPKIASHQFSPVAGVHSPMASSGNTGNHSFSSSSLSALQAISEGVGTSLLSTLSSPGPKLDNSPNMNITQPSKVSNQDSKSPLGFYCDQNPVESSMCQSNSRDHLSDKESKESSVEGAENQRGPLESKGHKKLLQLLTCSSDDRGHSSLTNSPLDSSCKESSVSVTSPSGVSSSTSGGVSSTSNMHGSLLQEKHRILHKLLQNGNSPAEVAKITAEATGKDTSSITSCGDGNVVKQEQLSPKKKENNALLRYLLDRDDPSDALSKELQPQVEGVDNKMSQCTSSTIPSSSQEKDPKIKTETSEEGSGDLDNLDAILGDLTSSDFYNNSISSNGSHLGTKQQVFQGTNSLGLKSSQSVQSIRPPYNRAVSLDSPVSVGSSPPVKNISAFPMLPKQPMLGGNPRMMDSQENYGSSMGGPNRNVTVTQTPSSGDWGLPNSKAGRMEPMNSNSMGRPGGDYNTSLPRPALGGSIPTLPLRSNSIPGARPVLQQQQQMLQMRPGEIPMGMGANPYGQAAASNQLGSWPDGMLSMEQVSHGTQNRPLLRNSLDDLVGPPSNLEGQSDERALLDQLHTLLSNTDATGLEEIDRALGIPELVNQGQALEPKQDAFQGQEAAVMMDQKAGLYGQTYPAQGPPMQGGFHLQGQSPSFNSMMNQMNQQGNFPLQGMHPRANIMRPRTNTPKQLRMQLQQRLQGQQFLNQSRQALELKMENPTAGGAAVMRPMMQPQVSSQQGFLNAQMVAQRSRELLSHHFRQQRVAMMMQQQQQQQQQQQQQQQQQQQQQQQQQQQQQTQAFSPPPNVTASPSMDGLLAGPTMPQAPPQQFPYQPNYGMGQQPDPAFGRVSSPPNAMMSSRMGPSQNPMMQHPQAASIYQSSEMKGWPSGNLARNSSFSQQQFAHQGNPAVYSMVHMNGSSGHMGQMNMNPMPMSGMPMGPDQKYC
# TEST_METHOD_NOTES: PROTAC activity at VHL/SRC-3 in human MCF7 cells assessed as induction of […] degradation at 1 uM incubated for 24 hrs by immunoblot analysis relative to control
# Assay type: cell-based
Activity: recorded values
Give the number; % is assumed, so skip it.

Below, 2 compounds whose answers are already recorded.
C/C(=N\Nc1nc2ccccc2n1CC1CCN(CC(=O)N[C@H](C(=O)N2C[C@H](O)C[C@H]2C(=O)N[C@@H](C)c2ccc(-c3scnc3C)cc2)C(C)(C)C)CC1)c1ccccn1; 10
C/C(=N\Nc1nc2ccccc2n1CCNC(=O)CCCCCN[C@H](C(=O)N1C[C@H](O)C[C@H]1C(=O)N[C@@H](C)c1ccc(-c2scnc2C)cc1)C(C)(C)C)c1ccccn1; 15

With those in mind, consider the next compound.
I am curious: what Activity value has been reported for `C/C(=N\Nc1nc2ccccc2n1CCNC(=O)CCCCCCN[C@H](C(=O)N1C[C@H](O)C[C@H]1C(=O)N[C@@H](C)c1ccc(-c2scnc2C)cc1)C(C)(C)C)c1ccccn1` ?
43

====

# TEST_METHOD_NOTES: Tmax in Balb/c mouse at 4 mg/kg, ip by LC-MS/MS analysis
# Type: ADME, organism-based
# EXPERIMENTAL_CONDITIONS: in vivo
VALUE_TYPE: Tmax (min)
Express it in min; write the number only.

Which Tmax value is on record for C/C(=N\Nc1nc2ccccc2n1C1CN(C2CCN(c3cccc4c3C(=O)N(C3CCC(=O)NC3=O)C4=O)CC2)C1)c1ccccn1 (stereo unspecified) ?
19.8

====

# TEST_METHOD_NOTES: Cmax in Balb/c mouse at 2 mg/kg, iv by LC-MS/MS analysis
# Assay type: ADME, organism-based
# EXPERIMENTAL_CONDITIONS: in vivo
VALUE_TYPE: Cmax (ng/mL)
Please reply with the bare figure in ng/mL and do not write the unit itself.

So what's the measured Cmax for this one? C/C(=N\Nc1nc2ccccc2n1C1CN(C2CCN(c3cccc4c3C(=O)N(C3CCC(=O)NC3=O)C4=O)CC2)C1)c1ccccn1 (stereo unspecified)
148

====

# TEST_METHOD_NOTES: Cmax in Balb/c mouse at 4 mg/kg, ip by LC-MS/MS analysis
# Assay type: ADME, organism-based
# EXPERIMENTAL_CONDITIONS: in vivo
VALUE_TYPE: Cmax (ng/mL)
Field: numeric (ng/mL). Do not append units.

Which value of Cmax has been reported for C/C(=N\Nc1nc2ccccc2n1C1CN(C2CCN(c3cccc4c3C(=O)N(C3CCC(=O)NC3=O)C4=O)CC2)C1)c1ccccn1 (stereo unspecified) in the records?
31.2

====

# TEST_METHOD_NOTES: Clearance in Balb/c mouse at 2 mg/kg, iv by LC-MS/MS analysis
# Assay type: ADME, organism-based
# EXPERIMENTAL_CONDITIONS: in vivo
VALUE_TYPE: clearance (mL/min/kg)
Unit mL/min/kg implied. Number only.

May I ask what clearance has been recorded for C/C(=N\Nc1nc2ccccc2n1C1CN(C2CCN(c3cccc4c3C(=O)N(C3CCC(=O)NC3=O)C4=O)CC2)C1)c1ccccn1 (stereo unspecified) ?
96.8
